meta.source: ChEMBL document CHEMBL1145177

System: HT-29
experimentSummary: Inhibitory concentration value against human colon adenocarcinoma HT-29 tumor cell line
Assay type: functional, cell-based
readoutLabel: IC50

{"lineNotation": "COc1cc(/C=C/c2ccc3ccccc3c2)cc(N)c1OC", "IC50": "6 µM"}
{"lineNotation": "COc1ccc(/C=C\\c2ccc3ccccc3c2)cc1C(=O)CN", "IC50": "> 5 µM"}
{"lineNotation": "COc1cc(/C=C/c2ccc3ccccc3c2)cc(NC(C)=O)c1OC", "IC50": "> 5 µM"}

Form: molecule = `COc1ccc(/C=C/c2ccc3ccccc3c2)cc1F` ; IC50 = > 5 µM

Form: molecule = `CCN(CC)c1cc(/C=C/c2ccc3ccccc3c2)ccc1OC` ; IC50 = > 5 µM

Form: molecule = `FC(F)(F)Oc1cccc(/C=C\c2ccc3ccccc3c2)c1` ; IC50 = 3.5 µM

---

Test system: HT-29
experimentSummary: Inhibitory concentration value against human colon adenocarcinoma HT-29 tumor cell line
Assay type: functional, cell-based
pIC50: −log10 of the molar value.
readoutLabel: pIC50

{"lineNotation": "O=S(=O)(c1ccccc1)n1ccc2cc(/C=C\\c3ccc4ccccc4c3)ccc21", "pIC50": "< 5.30"}
{"lineNotation": "COc1c(N)cc(/C=C/c2ccc3ccccc3c2)cc1N", "pIC50": "< 5.30"}

# ---- query compound ----
Form: compound = `CN(C)c1ccc(/C=C/c2ccc3ccccc3c2)cc1` ; pIC50 = 5.44

---

System: A549
experimentSummary: Inhibitory concentration value against human A-549 tumor cell line
Type: functional, cell-based
readoutLabel: IC50 (µM)
# value in µM; strip the unit string

Guide cases for IC50, answers given:
{"lineNotation": "COc1cccc(/C=C\\c2ccc3ccccc3c2)c1", "IC50, µM": 1.92}
{"lineNotation": "C(=C/c1cccc2ccccc12)/c1ccc2ccccc2c1", "IC50, µM": 3.57}
{"lineNotation": "COc1cc(/C=C\\c2ccc3ccccc3c2)cc([N+](=O)[O-])c1OC", "IC50, µM": 0.59}
{"lineNotation": "COc1ccc(/C=C\\c2ccc3ccccc3c2)cc1C(=O)CN", "IC50, µM": 1.58}
{"lineNotation": "COc1cc(/C=C\\c2cn(C(C)=O)c3ccccc23)cc(OC)c1OC", "IC50, µM": 2.85}

Form: compound = `Oc1ccc(/C=C/c2ccc3ccccc3c2)cc1` ; IC50 = 4.06

Form: compound = `COc1cc(/C=C\c2c[nH]c3ccccc23)cc(OC)c1OC` ; IC50 = 3.23

Form: compound = `COc1cc(/C=C\c2cn(C)c3ccccc23)cc(OC)c1OC` ; IC50 = 3.09

---

target: Tubulin beta chain (Bos taurus)
Sequence (Q6B856 whole entry): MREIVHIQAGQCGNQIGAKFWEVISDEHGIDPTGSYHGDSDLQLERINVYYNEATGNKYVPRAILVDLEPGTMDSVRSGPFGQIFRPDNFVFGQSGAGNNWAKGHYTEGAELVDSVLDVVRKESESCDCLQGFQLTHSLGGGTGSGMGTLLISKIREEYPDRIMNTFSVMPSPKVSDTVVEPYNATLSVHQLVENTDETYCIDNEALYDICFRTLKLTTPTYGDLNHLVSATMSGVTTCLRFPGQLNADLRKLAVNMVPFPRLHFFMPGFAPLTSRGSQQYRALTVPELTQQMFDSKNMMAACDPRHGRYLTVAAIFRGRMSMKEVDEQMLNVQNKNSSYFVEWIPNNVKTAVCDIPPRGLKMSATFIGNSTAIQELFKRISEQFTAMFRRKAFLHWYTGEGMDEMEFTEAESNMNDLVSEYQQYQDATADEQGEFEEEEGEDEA
pIC50: −log10 of the molar value.
Values of pIC50 greater than or equal to 5 map to MET; values below map to NOT MET.

{"lineNotation": "COc1cc(/C=C\\c2ccc3c(c2)c2ccccc2n3C)cc(OC)c1OC", "target": "Tubulin beta chain (Bos taurus)", "class": "MET"}
{"lineNotation": "COc1cc(/C=C/c2ccc3ccccc3c2)cc([N+](=O)[O-])c1OC", "target": "Tubulin beta chain (Bos taurus)", "class": "NOT MET"}
{"lineNotation": "COc1ccc(/C=C\\c2cc(OC)c3ccccc3c2)cc1O", "target": "Tubulin beta chain (Bos taurus)", "class": "NOT MET"}
{"lineNotation": "COc1cc(/C=C/c2ccc3c(ccn3C)c2)cc(OC)c1OC", "target": "Tubulin beta chain (Bos taurus)", "class": "NOT MET"}

--- query ---
Lookup: Threshold query (pIC50 >= 5) on `COc1cc(/C=C\c2ccc3[nH]ccc3c2)cc(OC)c1OC`
Found: NOT MET
